assay: Pharmacokinetics of metabolite after 7.5-60 mg Compound A (protocol of U.S. provisional 61/653,436); type: in vivo, human; conditions: human, in vivo, day 15 of once a day administration of about 15 mg of Compound A, read-out: Ctrough
attribute-measured: concentration at 15 day (ng/mL)
Return type: number; implicit unit ng/mL.

Would you kindly share the measured concentration at 15 day for CC(C)(O)c1ccc(-c2cnc3c(n2)N([C@H]2CC[C@H](O)CC2)C(=O)CN3)cn1 [O-Desmethyl metabolite] ?
145

====

experiment: Pharmacokinetics of metabolite after 7.5-60 mg Compound A (protocol of U.S. provisional 61/653,436); assay type: in vivo, human; conditions: human, in vivo, day 15 of once a day administration of about 7.5 mg of Compound A, read-out: Ctrough
attribute-measured: concentration at 15 day (ng/mL)
Return type: number; implicit unit ng/mL.

Would you kindly share the measured concentration at 15 day for CC(C)(O)c1ccc(-c2cnc3c(n2)N([C@H]2CC[C@H](O)CC2)C(=O)CN3)cn1 [O-Desmethyl metabolite] ?
267
